- test-target: recombinant human MGAT2 (Homo sapiens (Human))
- test-method-notes: Measurement of human MGAT2 inhibitory activity
- Type: biochemical
- measurement-parameters: read-out: IC50 (concentration exhibiting 50% enzyme inhibition), Table 53
observable: pIC50
One number for each entry, as −log10 of the molar value.

Consider the following illustrative entries.
>>> result_number("Cc1ccc(-n2nc3c(c2NC(=O)CS(C)(=O)=O)C(=O)N[C@@]2(CCOc4cc(OC(C)C)ccc42)C3)nc1")
8.31
>>> result_number("Cc1nocc1-c1ccc2c(c1)CC[C@@]21Cc2nn(CCC3CC3)c(NC(=O)CS(C)(=O)=O)c2C(=O)N1")
7.90

Exercise: I'm curious: which pIC50 was measured for Cc1cc(-n2nc3c(c2C(=O)NCCS(N)(=O)=O)C(=O)N[C@@]2(CCc4cc(OCC(F)(F)F)ccc42)C3)no1 tested on recombinant human MGAT2 (Homo sapiens (Human))?
Solution: 7.34

###

- test-target: recombinant human MGAT2 (Homo sapiens (Human), UniProt Q3SYC2)
- Sequence (Q3SYC2 whole entry): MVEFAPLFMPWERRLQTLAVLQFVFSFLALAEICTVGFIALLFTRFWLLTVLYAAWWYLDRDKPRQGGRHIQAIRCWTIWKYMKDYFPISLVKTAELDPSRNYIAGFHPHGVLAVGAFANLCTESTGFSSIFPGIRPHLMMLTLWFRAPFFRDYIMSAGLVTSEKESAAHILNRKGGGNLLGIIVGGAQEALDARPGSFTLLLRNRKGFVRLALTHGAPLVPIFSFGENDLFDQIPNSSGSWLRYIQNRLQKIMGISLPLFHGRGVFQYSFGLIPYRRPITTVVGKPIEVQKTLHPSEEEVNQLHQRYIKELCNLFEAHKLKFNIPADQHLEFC
- test-method-notes: Measurement of human MGAT2 inhibitory activity
- Type: biochemical
- measurement-parameters: read-out: IC50 (concentration exhibiting 50% enzyme inhibition), Table 53
pIC50: −log10 of the molar value.
Tag: Criterion met if measured pIC50 is not below 8, Criterion not met if it is.

>>> label_value("CS(=O)(=O)CC(=O)Nc1c2c(nn1CCCOC(F)F)C[C@]1(CCc3cc(OCC(F)(F)F)ccc31)NC2=O")
"Criterion met"
>>> label_value("COCCS(=O)(=O)NC(=O)c1c2c(nn1-c1ccc(C)cn1)C[C@]1(CCc3cc(OCC(F)(F)F)ccc31)NC2=O")
"Criterion not met"
>>> label_value("Cc1cc(-n2nc3c(c2NC(=O)CS(C)(=O)=O)C(=O)N[C@](C)(c2ccc(OCCCC(F)(F)F)cc2F)C3)no1")
"Criterion met"
>>> label_value("Cc1ccc(-n2nc3c(c2NC(=O)CS(C)(=O)=O)C(=O)N[C@@]2(CCc4cc(C(F)(F)F)ccc42)C3)nn1")
"Criterion met"
>>> label_value("Cc1ccc(-n2nc3c(c2C(=O)NS(C)(=O)=O)C(=O)N[C@@]2(CCc4cc(OCC(F)(F)F)ccc42)C3)cc1F")
"Criterion not met"

Attention now turns to another entry.
Exercise: Dear colleague, could you confirm whether CS(=O)(=O)CC(=O)Nc1c2c(nn1-c1ccc(F)c(F)c1)C[C@]1(NC2=O)c2ccc(OCC(F)(F)F)cc2CC1(F)F has pIC50 at or above 8?
Solution: Criterion met

###

- test-method-notes: Metabolism stability test
- Assay type: in vitro ADME
- measurement-parameters: human liver microsomes, 30 minutes, 37° C., NADPH, 0.5 μmol/L of test compound
observable: Remaining rate (%)
Give bare numbers, in %.

Consider the following illustrative entries.
>>> result_number("CS(=O)(=O)CC(=O)Nc1c2c(nn1CCCOC(F)(F)F)C[C@]1(CCc3cc(OCC(F)(F)F)ccc31)NC2=O [Compound I-253]")
76.8
>>> result_number("Cc1cc(-n2nc3c(c2NC(=O)CS(C)(=O)=O)C(=O)N[C@@]2(CCOc4cc(OCCCC(F)(F)F)ccc42)C3)no1 [II-233]")
94.7
>>> result_number("Cc1ccc(-n2nc3c(c2C(=O)NS(=O)(=O)C2CC2)C(=O)N[C@@]2(CCc4cc(OCC(F)(F)F)ccc42)C3)nc1 [II-202]")
98.7

Now for another entry.
Exercise: For the compound CS(=O)(=O)CC(=O)Nc1c2c(nn1CCCOC(F)(F)F)C[C@@]1(CCOc3cc(OCC(F)(F)F)ccc31)NC2=O [II-121] , what Remaining rate (%) is on record?
Solution: 89.7
